Known melting point of a selection of compounds

Record excerpt, results attached:
compound: O=C(O)[C@@H]1C[C@H]2C[C@@H](C=Cc3nsnc3O)CC[C@H]2CN1 (racemic)
measured-value: 239 to 242 °C

compound: CC(=O)NC1CC(C)(C)N(OC(C)=O)C(C)(C)C1
measured-value: 129 to 132 °C

compound: O=c1c2cc(Cl)ccc2nc2n1CCC2=Cc1ccccc1
measured-value: 225 to 227 °C

compound: CCCn1cc(Cc2ccc(C(=O)O)cc2OC)c2cc(C=CCC(=O)N(C)C)ccc21
measured-value: 124 to 126 °C

Given item COC(=O)c1cc(-n2c(-c3ccccc3)cc3c2CCc2ccccc2-3)ccc1O , the value recorded as its melting point is 164 to 166 °C

Given item NC(=O)C1CCC(=O)N1CC#CCN1CCCC1 (stereo unspecified) , the value recorded as its melting point is 146 to 148 °C

Given item CCOC(=O)CSc1nc(C(C)(C)C)n[nH]1 , the value recorded as its melting point is 93 °C

Given item COc1ccc2cc(-c3noc4cc(OC)ccc34)ccc2c1 , the value recorded as its melting point is 141 to 143 °C

Given item CCCCS(=O)C1CC(=O)N1CC(=O)CCc1ccccc1 (stereo unspecified) , the value recorded as its melting point is 145 to 146 °C

Given item CC1(C)CCSc2cc(C(=O)O)ccc21 , the value recorded as its melting point is 202 to 204 °C

Given item O=C(O)C(Cc1nnn[nH]1)NC(=O)C(CS)C(F)(F)F (stereo unspecified) , the value recorded as its melting point is 158 to 161 °C

###

Known melting point of a selection of compounds

Record excerpt, results attached:
compound: O=C1NC(c2cccs2)=C2C(=O)NC(c3cccs3)=C12
melting point: > 400 °C
//
compound: CCOP(=O)(Cc1ccc(NC(=O)CCc2cnoc2-c2ccc(Cl)cc2)cc1)OCC
melting point: 138 to 139 °C
//
compound: Nc1ccc(S(=O)(=O)c2cc(C3CC3)nc(N3CCCC3)c2)cc1
melting point: 216 to 218 °C
//
compound: CN1C(=O)N(c2cc(Cl)nc(Cl)c2)C(=O)/C1=C\c1ccc(C#N)cc1
melting point: 230 °C

Given item CC(C)(C)OC(=O)N1c2ccccc2CC1c1ccccc1N (stereo not given) , the value recorded as its melting point is 114 to 117 °C

###

Known melting point of a selection of molecules

Record excerpt, results attached:
molecule: COc1cccc([C@H]2O[C@H](CC(=O)O)C(=O)N(CC(C)(CO)CO)c3ccc(Cl)cc32)c1OC
measured-value: 208 to 210 °C
--
molecule: c1ccc2c(c1)CCc1cc(C3CO3)ccc1-2 (stereo not drawn)
measured-value: 65 to 66 °C
--
molecule: CC(C)(Nc1ccccc1[N+](=O)[O-])C(=O)O
measured-value: 132 to 133 °C
--
molecule: CCOC(=O)c1cnc2ccc(OC)cc2c1Cl
measured-value: 93.7 to 95.7 °C
--
molecule: NC(=O)c1cc(-c2ccccc2)n[nH]c1=O
measured-value: > 300 °C

Given item CC1(C)CCCN(C(=O)[C@H]2C[C@@H](S(=O)(=O)c3ccccc3)[C@@H](c3ccccc3F)N2C(=O)CNC(=O)Nc2cccc(C(=O)O)c2)C1 (racemic) , the value recorded as its melting point is 258 °C

Given item Cn1nnnc1SCC(CS(=O)(=O)c1ccc(-c2ccc(Cl)cc2)cc1)C(=O)O (stereo not drawn) , the value recorded as its melting point is 98 to 100 °C

Given item CC(=O)OCC1OC(n2cc(C3=C(c4cn(C(=O)OC(C)(C)C)c5ccccc45)C(=O)N(C)C3=O)c3cccnc32)C(OC(C)=O)C(OC(C)=O)C1OC(C)=O (stereo not drawn) , the value recorded as its melting point is 89 to 91 °C

Given item CCCCC(=O)OC1(C(=O)CCl)CCC2C3CC(C)C4CC(=O)CCC4(C)C3(F)C(=O)CC21C (stereo not drawn) , the value recorded as its melting point is 67 to 72 °C

Given item COc1cc(C)c(CNCCc2ccc(O)cc2)cc1O , the value recorded as its melting point is 122 to 124 °C

Given item Cc1cc(COc2ccc(S(=O)(=O)NC[C@@H](C(=O)NO)N3CCNCC3)cc2)c2ccccc2n1 , the value recorded as its melting point is 225 °C

Given item Cc1nnsc1C(=O)Nc1ccc(-n2nc(-c3cccnc3)cc2C#N)cc1 , the value recorded as its melting point is 215 to 218 °C
